biological target: c-Cbl (Homo sapiens (Human), UniProt P22681); experiment: C-Cbl LCK Ub TR-FRET assay (c-cbl Lck HTRF); format: biochemical
Sequence (P22681 47-435): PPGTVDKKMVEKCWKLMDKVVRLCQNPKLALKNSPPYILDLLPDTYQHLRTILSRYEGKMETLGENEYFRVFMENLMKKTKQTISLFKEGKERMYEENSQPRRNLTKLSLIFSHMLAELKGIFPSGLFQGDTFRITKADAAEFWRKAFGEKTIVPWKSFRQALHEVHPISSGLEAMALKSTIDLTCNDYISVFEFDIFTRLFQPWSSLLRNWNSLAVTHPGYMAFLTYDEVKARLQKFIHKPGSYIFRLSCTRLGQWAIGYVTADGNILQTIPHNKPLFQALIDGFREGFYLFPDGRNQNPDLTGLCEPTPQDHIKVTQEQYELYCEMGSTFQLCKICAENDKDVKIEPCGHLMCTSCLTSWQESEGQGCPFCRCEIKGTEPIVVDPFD
Entries and their measured IC50 follow.
Please respond with the number in nM and leave the unit unwritten.

compound: Cn1cnnc1CC1(c2cccc(N3Cc4c(cc([C@H](N)C5CC5)cc4C(F)(F)F)C3=O)c2)CC(F)(F)C1
measured.attribute: IC50
unit.label: nM
reported.result: 19

compound: CC(C)[C@H]1CN(C)CCN1Cc1cc2c(c(C(F)(F)F)c1)CN(c1cccc(C3(Cc4nncn4C)CC(F)(F)C3)c1)C2=O [Compound 215]
measured.attribute: IC50
unit.label: nM
reported.result: 5

The compound `CCN1CCN(Cc2cc3c(c(C(F)(F)F)c2)CN(c2cccc(C4([C@@H](F)c5nncn5C)CC(F)(F)C4)c2)C3=O)[C@@H](C(C)C)C1` showed IC50 equal to 8.4

The compound `Cn1cnnc1[C@H](F)C1(c2cccc(N3Cc4c(cc(CN5CCCC5)cc4C(F)(F)F)C3=O)c2)CC(F)(F)C1` showed IC50 equal to 110

The compound `Cn1cnnc1CC1(c2cccc(N3Cc4c(cc([C@@H](N)C5CC5)cc4C(F)(F)F)C3=O)c2)CC(F)(F)C1` showed IC50 equal to 18

The compound `Cn1cnnc1[C@H](F)C1(c2cccc(N3Cc4c(cc(CN5CCOCC5)cc4C(F)(F)F)C3=O)c2)COC1` showed IC50 equal to 210

###

target: c-Cbl (Homo sapiens (Human), UniProt P22681); assay: C-Cbl LCK Ub TR-FRET assay (c-cbl Lck HTRF); format: biochemical
measured.attribute: pIC50
pIC50 here: minus log base 10 of the concentration, concentration in moles per litre.

compound: Cn1cnnc1[C@H](F)C1(c2cccc(N3Cc4c(cc(CN5CC6(C5)CS(=O)(=O)C6)cc4C(F)(F)F)C3=O)c2)COC1
system.name: c-Cbl (Homo sapiens (Human), UniProt P22681)
measured.attribute: pIC50
reported.result: 6.96

The compound `COCC1(O)CN(Cc2cc3c(c(C(F)(F)F)c2)CN(c2cccc(C4([C@H](F)c5nncn5C)COC4)c2)C3=O)C1` showed pIC50 equal to 6.70

The compound Cn1cnnc1CC1(c2cccc(N3Cc4c(cc(CNC5(C)CCC5(C)C)cc4C(F)(F)F)C3=O)c2)CC(F)(F)C1 (stereo not shown) showed pIC50 equal to 8.04

The compound CC[C@H]1CN(C)CCN1Cc1cc2c(c(C(F)(F)F)c1)CN(c1cccc(C3(Cc4nncn4C)CC(F)(F)C3)c1)C2=O [Compound 401] showed pIC50 equal to 7.57

The compound `CC(C)[C@@H]1CN(Cc2cc3c(c(C(F)(F)F)c2)CN(c2cccc(C4(Cc5nncn5C)CC(F)(F)C4)c2)C3=O)CCN1` showed pIC50 equal to 8.00

The compound `CC(C)[C@H]1CN(C)CCN1Cc1cc2c(c(C(F)(F)F)c1)CN(c1cc(C3(Cc4nncn4C)COC3)cc(OC3CCCC3)n1)C2=O` showed pIC50 equal to 8.11

###

target: c-Cbl (Homo sapiens (Human), UniProt P22681); test: C-Cbl LCK Ub TR-FRET assay (c-cbl Lck HTRF); assay type: biochemical; details: C-cbl Lck HTRF IC50 relative to Cbl-b Lck HTRF IC50
Entries and their measured (fold-selectivity) follow.
Please respond with the number in x and leave the unit unwritten.

smiles.text: Cn1cnnc1[C@@H](F)C1(c2cccc(N3Cc4c(cc(CN5CC(C)(C)C5)cc4C(F)(F)F)C3=O)c2)COC1
reported.result: 2.2
//
smiles.text: Cn1cnnc1[C@H](F)C1(c2cccc(N3Cc4c(cc(CN5CCC[C@@H](CO)C5)cc4C(F)(F)F)C3=O)c2)COC1
reported.result: 1.4
//
smiles.text: Cn1cnnc1[C@@H](F)C1(c2cccc(N3Cc4c(cc(CN5CC(C)(CF)C5)cc4C(F)(F)F)C3=O)c2)COC1
reported.result: 1.8
//
smiles.text: CC(C)[C@H]1CN(C)CCN1Cc1cc2c(c(C(F)(F)F)c1)CN(c1cccc(C3(C(F)(F)c4nncn4C)CC3)c1)C2=O
reported.result: 1.0

Next compound, (fold-selectivity) to be filled in.
The compound `Cn1cnnc1[C@H](F)C1(c2cccc(N3Cc4c(Br)cccc4C3=O)c2)COC1` showed (fold-selectivity) equal to 2.0
